Cited source for all entries: ChEMBL document CHEMBL1150301

molecular target: P2X purinoceptor 7 (Rattus norvegicus); assay: Antagonist activity at rat recombinant P2X7 receptor expressed in human 1321N1 cells assessed as benzoyl-ATP-induced calcium flux by FLIPR assay
Sequence (Q64663 whole entry): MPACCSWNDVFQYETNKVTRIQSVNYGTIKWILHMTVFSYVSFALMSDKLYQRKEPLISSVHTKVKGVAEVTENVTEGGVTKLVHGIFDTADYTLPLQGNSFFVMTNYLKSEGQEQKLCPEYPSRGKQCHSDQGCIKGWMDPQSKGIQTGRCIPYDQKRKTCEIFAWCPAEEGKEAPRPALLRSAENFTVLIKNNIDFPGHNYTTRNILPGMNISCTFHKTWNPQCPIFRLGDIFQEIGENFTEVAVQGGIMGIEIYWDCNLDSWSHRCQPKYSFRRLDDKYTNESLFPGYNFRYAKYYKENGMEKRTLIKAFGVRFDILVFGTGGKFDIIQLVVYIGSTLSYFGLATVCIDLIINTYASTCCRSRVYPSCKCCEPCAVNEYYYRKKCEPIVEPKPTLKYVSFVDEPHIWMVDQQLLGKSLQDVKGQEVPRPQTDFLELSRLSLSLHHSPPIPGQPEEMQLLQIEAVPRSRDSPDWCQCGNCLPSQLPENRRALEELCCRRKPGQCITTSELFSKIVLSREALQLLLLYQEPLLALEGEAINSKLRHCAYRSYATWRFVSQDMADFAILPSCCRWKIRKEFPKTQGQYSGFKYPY
PROPERTY_MEASURED: IC50 (nM)

Previously resolved entries follow.
{"columns": ["COMPOUND", "SYSTEM_UNDER_TEST", "IC50 [nM]"],
 "data": [
  ["Cc1ccccc1NNC(=O)CC1CCCCC1", "P2X purinoceptor 7 (Rattus norvegicus)", 151],
  ["Cc1ccccc1NNC(=O)C1CCCCCC1", "P2X purinoceptor 7 (Rattus norvegicus)", 49],
  ["O=C(NNc1cccc2ncccc12)C12CC3CC(CC(C3)C1)C2", "P2X purinoceptor 7 (Rattus norvegicus)", 44.7],
  ["CC1(C)C2CCC1(C(=O)NNc1cccc3ncccc13)C(=O)C2 (configuration not stated)", "P2X purinoceptor 7 (Rattus norvegicus)", 1510],
  ["O=C(NNc1cccc2ncccc12)C1(c2cccc(F)c2)CCCCC1", "P2X purinoceptor 7 (Rattus norvegicus)", 257]
]}

A = CCCCCCC(=O)NNc1ccccc1C
B = O=C(NNc1cccc(Cl)c1Cl)C12CC3CC(CC(C3)C1)C2
C = Cc1ccccc1NNC(=O)CCC(C)C
D = O=C(NNc1cccc2ncccc12)C12CC3CC(CC(Cl)(C3)C1)C2
E = COc1ccc(NNC(=O)C23CC4CC(CC(C4)C2)C3)cc1
Put these in order: smallest IC50 first, largest last. Answer by listing the labels in the order asked for. D, B, A, C, E
(D: 35.5 nM, B: 51.3 nM, A: 195 nM, C: 339 nM, E: 2450 nM)

A = O=C(NNc1ccccc1F)C12CC3CC(CC(C3)C1)C2
B = O=C(NNc1ccccn1)C12CC3CC(CC(C3)C1)C2
In terms of reported IC50, does A or B have the smaller number? Selection: enter the item's label. A

P = COc1ccc(C2(C(=O)NNc3cccc4ncccc34)CCCCC2)cc1
Q = O=C(NNc1cccnc1)C12CC3CC(CC(C3)C1)C2
In terms of reported IC50, does P or Q have the smaller number? Selection: enter the item's label. P
(P: 51.3 nM, Q: 977 nM)

* * *

target: P2X purinoceptor 7 (Rattus norvegicus); assay: Antagonist activity at rat recombinant P2X7 receptor expressed in human 1321N1 cells assessed as benzoyl-ATP-induced calcium flux by FLIPR assay
PROPERTY_MEASURED: IC50 (nM)

{"columns": ["MOL_SMILES", "IC50 [nM]"],
 "data": [
  ["CCC12CC3CC(C1)CC(C(=O)NNc1cccc4ncccc14)(C3)C2", 145],
  ["CC1(C)C(C(=O)NNc2cccc3ncccc23)C1(C)C", 155],
  ["Cc1ccccc1NNC(=O)C1(c2ccccc2)CCCC1", 151]
]}

* * *

biological target: P2X purinoceptor 7 (Homo sapiens); experiment: Antagonist activity at human recombinant P2X7 receptor expressed in human 1321N1 cells assessed as benzoyl-ATP-induced calcium flux by FLIPR assay; assay type: functional, cell-based
Sequence (Q99572 whole entry): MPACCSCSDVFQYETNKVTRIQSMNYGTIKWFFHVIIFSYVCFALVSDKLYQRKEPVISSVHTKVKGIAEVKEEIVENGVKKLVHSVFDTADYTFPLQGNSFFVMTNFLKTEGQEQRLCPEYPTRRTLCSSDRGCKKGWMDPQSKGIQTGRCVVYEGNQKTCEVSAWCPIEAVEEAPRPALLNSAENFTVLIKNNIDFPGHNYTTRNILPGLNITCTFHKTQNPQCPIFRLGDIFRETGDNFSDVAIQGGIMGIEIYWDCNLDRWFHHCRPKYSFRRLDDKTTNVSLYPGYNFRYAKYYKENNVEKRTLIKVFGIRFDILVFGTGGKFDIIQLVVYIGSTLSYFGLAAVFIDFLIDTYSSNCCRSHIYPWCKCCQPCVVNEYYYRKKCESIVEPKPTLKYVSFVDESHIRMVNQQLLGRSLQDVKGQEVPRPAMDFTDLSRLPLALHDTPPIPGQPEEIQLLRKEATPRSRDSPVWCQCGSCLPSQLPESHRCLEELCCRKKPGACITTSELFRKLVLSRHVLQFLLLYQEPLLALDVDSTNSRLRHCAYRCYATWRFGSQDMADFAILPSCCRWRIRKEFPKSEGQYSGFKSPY
pIC50: −log10 of the molar value.
PROPERTY_MEASURED: pIC50

Previously resolved entries follow.
{"columns": ["COMPOUND", "OBSERVED"],
 "data": [
  ["CC1CCC(C)(C(=O)NNc2cccc3ncccc23)C1(C)C (centres undefined)", 7.56],
  ["O=C(NNc1cccc2cnccc12)C12CC3CC(CC(C3)C1)C2", 7.47]
]}

P = COc1ccc(C2(C(=O)NNc3cccc4ncccc34)CCCCC2)cc1
Q = CC1(C(=O)NNc2cccc3ncccc23)CC2C=CC1C2 (centres undefined)
In terms of reported pIC50, does P or Q have the smaller number? Selection: enter the item's label. P
(P: 7.28, Q: 7.73)

* * *

molecular target: P2X purinoceptor 7 (Rattus norvegicus); experiment: Antagonist activity at rat recombinant P2X7 receptor expressed in human 1321N1 cells assessed as benzoyl-ATP-induced calcium flux by FLIPR assay
pIC50: −log10 of the molar value.
PROPERTY_MEASURED: pIC50

1 = CC1CCC(C)(C(=O)NNc2cccc3ncccc23)C1(C)C (stereo not drawn)
2 = Cc1ccccc1NNC(=O)C1CCCCC1
3 = O=C(NNc1cccc(F)c1)C12CC3CC(CC(C3)C1)C2
Output the entries ranked by pIC50 from maximum down to minimum. Answer by listing the labels in the order asked for. 1, 2, 3
